- Tested on: 313798-341-R-J2-PDC spheroids, viability
- ASSAY TEXT: Anticancer human tumor 313798-341-R-J2-PDC patient-derived cervical squamous cell carcinoma cell line growth inhibition [PI3K]
- APPLIED CONDITIONS: second compound 3.16 µM; first compound 0.00316 µM; active compounds read low; spheroids with HUVEC and MSC
Note to self: use Criterion met only for viability, T/C readings below 90%; a reading exactly at 90% still gets Criterion not met.

| COMPOUND | SYSTEM UNDER TEST | ASSIGNED LABEL |
| --- | --- | --- |
| Cn1ncnc1[C@H]1c2n[nH]c(=O)c3cc(F)cc(c23)N[C@@H]1c1ccc(F)cc1 + Cc1nc(NC(=O)N2CCCC2C(N)=O)sc1-c1ccnc(C(C)(C)C(F)(F)F)c1 | 313798-341-R-J2-PDC spheroids, viability | Criterion met |
| CC(=O)c1c(C)c2cnc(Nc3ccc(N4CCNCC4)cn3)nc2n(C2CCCC2)c1=O + Cc1nc(NC(=O)N2CCCC2C(N)=O)sc1-c1ccnc(C(C)(C)C(F)(F)F)c1 | 313798-341-R-J2-PDC spheroids, viability | Criterion met |
| CC(=O)c1c(C)c2cnc(Nc3ccc(N4CCNCC4)cn3)nc2n(C2CCCC2)c1=O + CC(Nc1ncnc2nc[nH]c12)c1cc2cccc(Cl)c2c(=O)n1-c1ccccc1 | 313798-341-R-J2-PDC spheroids, viability | Criterion not met |
| CC(C)n1nc(-c2ccc3oc(N)nc3c2)c2c(N)ncnc21 + Cc1nc(NC(=O)N2CCCC2C(N)=O)sc1-c1ccnc(C(C)(C)C(F)(F)F)c1 | 313798-341-R-J2-PDC spheroids, viability | Criterion met |
| CC(C)n1nc(-c2ccc3oc(N)nc3c2)c2c(N)ncnc21 + CC(Nc1ncnc2nc[nH]c12)c1cc2cccc(Cl)c2c(=O)n1-c1ccccc1 | 313798-341-R-J2-PDC spheroids, viability | Criterion not met |
| CCN1CCN(Cc2ccc(Nc3ncc(F)c(-c4cc(F)c5nc(C)n(C(C)C)c5c4)n3)nc2)CC1 + Cc1nc(NC(=O)N2CCCC2C(N)=O)sc1-c1ccnc(C(C)(C)C(F)(F)F)c1 | 313798-341-R-J2-PDC spheroids, viability | Criterion met |

Pending compound:
Data request: Please check: viability, T/C for CCN1CCN(Cc2ccc(Nc3ncc(F)c(-c4cc(F)c5nc(C)n(C(C)C)c5c4)n3)nc2)CC1 + CC(Nc1ncnc2nc[nH]c12)c1cc2cccc(Cl)c2c(=O)n1-c1ccccc1 , strictly under 90% or not?
Data returned: Criterion not met

---

- Test system: 313798-341-R-J2-PDC spheroids, viability
- ASSAY TEXT: Anticancer human tumor 313798-341-R-J2-PDC cell line growth inhibition [PI3K];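 further: spheroids exposed to compounds for seven days; 100% = DMSO vehicle control viability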
- APPLIED CONDITIONS: second compound 0.1 µM; first compound 3.16 µM; active compounds read low; spheroids with HUVEC and MSC
ENDPOINT: viability, T/C (%)
Your answer is read as %, so omit the unit and give the number.

| MOLECULE | UNITS | viability, T/C |
| --- | --- | --- |
| CC1(C)CCC(CN2CCN(c3ccc(C(=O)NS(=O)(=O)c4ccc(NCC5CCOCC5)c([N+](=O)[O-])c4)c(Oc4cnc5[nH]ccc5c4)c3)CC2)=C(c2ccc(Cl)cc2)C1 + CC(Nc1ncnc2nc[nH]c12)c1cc2cccc(Cl)c2c(=O)n1-c1ccccc1 | % | 84.8 |

Data request: Give the measured viability, T/C of C=CC(=O)N1CCN(c2nc(=O)n(-c3c(C)ccnc3C(C)C)c3nc(-c4c(O)cccc4F)c(F)cc23)C(C)C1 (stereo not given) + COc1c(OCCCN2CCOCC2)ccc2c3n(c(=NC(=O)c4cnc(N)nc4)nc12)CCN3 .
Data returned: 50.1

Data request: Let us now turn to Cn1ncc(Cl)c1-c1cc(C(=O)NC(CN)Cc2cccc(F)c2)sc1Cl (stereo not given) + Cc1nc(NC(=O)N2CCCC2C(N)=O)sc1-c1ccnc(C(C)(C)C(F)(F)F)c1
Data returned: 33.6

Data request: Also need CCCS(=O)(=O)Nc1ccc(F)c(C(=O)c2c[nH]c3ncc(-c4ccc(Cl)cc4)cc23)c1F + CC(Nc1ccc2c(c1)OCCn1cc(N3C(=O)OCC3C(F)F)nc1-2)C(N)=O , thanks.
Data returned: 76

Data request: What would you report for CNC(=O)c1ccc(N2C(=S)N(c3ccc(C#N)c(C(F)(F)F)c3)C(=O)C2(C)C)cc1F + COc1c(OCCCN2CCOCC2)ccc2c3n(c(=NC(=O)c4cnc(N)nc4)nc12)CCN3 ?
Data returned: 34.9
